Form field: IC50 (one value per entry).
- measurement-target: human TASK-3 (Homo sapiens (Human), UniProt Q9NPC2)
- Sequence (Q9NPC2 whole entry): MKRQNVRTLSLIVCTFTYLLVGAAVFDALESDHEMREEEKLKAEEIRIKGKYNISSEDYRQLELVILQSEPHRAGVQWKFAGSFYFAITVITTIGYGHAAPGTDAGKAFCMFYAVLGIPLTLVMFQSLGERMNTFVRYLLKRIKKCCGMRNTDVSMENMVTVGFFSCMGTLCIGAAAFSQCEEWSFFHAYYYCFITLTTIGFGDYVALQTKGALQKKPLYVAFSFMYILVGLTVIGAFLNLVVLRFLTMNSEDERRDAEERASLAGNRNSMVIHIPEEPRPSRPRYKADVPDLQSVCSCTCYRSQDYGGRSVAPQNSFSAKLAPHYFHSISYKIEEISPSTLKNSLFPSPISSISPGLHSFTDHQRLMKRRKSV
- procedure-summary: Inhibition of recombinant TASK-3 in stably transfected CHO cells (voltage-sensitive dye, KCl depolarization)
- Type: cell-based
- particulars: depolarization by 40 mM potassium chloride
Give the number first and the unit second.

Here are 4 molecules together with their reported answers.
molecule | endpoint-value
O=C(c1cccc(OC(F)F)n1)N1C2CCC1CN(Cc1c(-c3ccc(C4CC4)cc3)nc3ncccn13)C2 | 290 nM
CCOc1ccc(N(C)C(=O)N2C3CCC2CN(Cc2c(-c4ccc(Cl)cc4)nc4ncccn24)C3)cc1 | 230 nM
CC(c1c(-c2ccc(Cl)cc2)nc2ncccn12)N1CC2CCC(C1)N2C(=O)OC(C)(C)C (racemic) | 130 nM
COc1ccc(F)c(C(=O)N2CC3CCC2CN3Cc2c(-c3ccc(C(C)C)cc3)nc3ncccn23)n1 (stereo not shown) [Example 71] | 110 nM

# query: IC50 | item `COc1ccc(F)c(C(=O)N2C3CCC2CN(Cc2c(-c4ccc(C5CC5)cc4)nc4ncccn24)C3)n1` | system: human TASK-3 (Homo sapiens (Human), UniProt Q9NPC2)
34 nM

Proceed to COc1cccc(C(=O)N2CC3CCC2CN3Cc2c(-c3ccc(Cl)cc3)nc3ncccn23)c1 (stereo not shown) [Example 43]
320 nM

Same question, `O=C(N1CCSCC1)N1C2CCC1CN(Cc1c(-c3ccc(Cl)cc3)nc3ncccn13)C2` this time
120 nM

* * *

- measurement-target: human TASK-1 (Homo sapiens (Human))
- Sequence (O14649 whole entry): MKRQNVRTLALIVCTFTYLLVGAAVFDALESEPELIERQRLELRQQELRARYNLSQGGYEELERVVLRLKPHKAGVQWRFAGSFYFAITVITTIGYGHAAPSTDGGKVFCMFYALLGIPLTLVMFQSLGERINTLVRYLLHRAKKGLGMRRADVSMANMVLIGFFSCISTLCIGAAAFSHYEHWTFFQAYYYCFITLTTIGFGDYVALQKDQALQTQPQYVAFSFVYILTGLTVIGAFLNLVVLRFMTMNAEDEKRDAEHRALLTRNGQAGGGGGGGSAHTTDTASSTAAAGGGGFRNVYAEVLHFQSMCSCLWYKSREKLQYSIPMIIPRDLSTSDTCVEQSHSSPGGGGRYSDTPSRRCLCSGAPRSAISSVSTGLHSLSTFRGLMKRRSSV
- procedure-summary: Inhibition of recombinant TASK-1 in stably transfected CHO cells (voltage-sensitive dye, KCl depolarization)
- Assay type: cell-based
- particulars: depolarization by 40 mM potassium chloride
pIC50: −log10 of the molar value.
# cutoff 6 applies to pIC50; >= gives True, < gives False

chemical-string | category-label
O=C(c1cscn1)N1C2CCC1CN(Cc1c(-c3ccc(Cl)cc3)nc3ncccn13)C2 | False

Kindly review the next molecule as well.
Kindly determine if pIC50 recorded for `COc1ccc(F)c(C(=O)N2C3CCC2CN(Cc2c(-c4ccc(Cl)cc4)nc4ncccn24)C3)n1` is above or exactly 6.
True

* * *

Each record here notes measured IC50.
- measurement-target: UniProtKB Q9NPC2
- procedure-summary: Inhibition of recombinant TASK-3 in stably transfected CHO cells (voltage-sensitive dye, KCl depolarization)
- Assay type: cell-based
- particulars: depolarization by 40 mM potassium chloride
Note: unit nM is implicit; provide only the numeric part.

Worked cases, IC50 given:
compound | unit-tag | endpoint-value
COc1ccc(Cl)c(C(=O)N2CC3CCC2CN3Cc2c(-c3ccc(Cl)cc3)nc3ncccn23)n1 (single isomer, unassigned) [Example 23] | nM | 100
O=C(C1CCCC1)N1C2CCC1CN(Cc1c(-c3ccc(C4CC4)cc3)nc3ncccn13)C2 [Example 134] | nM | 97
O=C(C1CCCC1)N1CC2CCC1CN2Cc1c(-c2ccc(Cl)cc2)nc2ncccn12 (stereo not shown) [Example 37] | nM | 140

Next item in the queue.
Bench note: what IC50 did O=C(Nc1cccc(Cl)c1Cl)N1C2CCC1CN(Cc1c(-c3ccc(Cl)cc3)nc3ncccn13)C2 [Example 94] show?
160

* * *

In this section we review reported pIC50 values for a set of compounds.
- measurement-target: human TASK-1 (Homo sapiens (Human))
- procedure-summary: Inhibition of recombinant TASK-1 in stably transfected CHO cells (voltage-sensitive dye, KCl depolarization)
- Assay type: cell-based
- particulars: depolarization by 40 mM potassium chloride
As a rule, pIC50 stands for the negative log10 of the concentration, concentration in M.

For the compound `O=C(c1cccc(OC(F)F)n1)N1C2CCC1CN(Cc1c(-c3ccc(C4CC4)cc3)nc3ncccn13)C2` , what pIC50 is on record?
5.49
